Target: Cytochrome P450 2C19 (Homo sapiens)
Experiment: Cytochrome panel assay with activity outcomes
Details: recombinant CYP, pro-luciferin dealkylation, luminescence, p450-cyp2c19; series mostly up to 57.1 µM
Hit rate of the full screen: of about 16,000 compounds, about 5,800 (36%) were called active. Not shown: some 23% with an inconclusive outcome. Calls come from the whole dose curve; as a rule, active = well fitted curve in the direction sought with a large enough effect; inconclusive = small, poorly fitted or top-dose-only effect, or effect the other way; inactive = no such curve, though single readings can be large or run the other way. The list shows a part of the results.
# output must be one of True for active, False for inactive

For orientation, consider the following solved cases.
[
  {
    "compound_structure_string": "Cc1cnc(CNc2nc(-c3ccccc3Cl)nc3ccccc23)cn1",
    "class_assignment": "False"
  },
  {
    "compound_structure_string": "COc1ccc(NC(=O)CCNS(=O)(=O)c2ccc3c(c2)CCC(=O)N3)cc1",
    "class_assignment": "False"
  },
  {
    "compound_structure_string": "CC(C)[C@H](N)c1nnc(SC/C=C/c2ccccc2)o1",
    "class_assignment": "True"
  }
]

**Query** # outcome recorded in this test, key = COc1ccc(-c2cc(C3CCN(c4ccc(C(C)=O)cc4[N+](=O)[O-])CC3)[nH]n2)cc1
**Result** True

**Query** Next compound up: Cc1n[nH]c(=O)nc1NCc1ccccc1Cl
**Result** True

**Query** Next compound up: O=C(CCNS(=O)(=O)c1ccc2c(c1)CCC(=O)N2)NCc1ccc2c(c1)OCO2
**Result** False
